method_notes: Tissue distribution following oral administration in rats (prodrug and metabolite levels in liver and blood)
Format: in vivo
conditions_used: rat, prodrug level in blood, 1 hour after oral administration, 5 mg/kg, read-out: Drug blood
property_name: concentration at 1 h (ng/mL)

molecule	property_name	units_symbol	measured_value
CC(C)OC(=O)c1ccccc1COP1(=O)OC[C@H]2O[C@@H](n3cc(F)c(=O)[nH]c3=O)C[C@@H]2O1 (some centres unmarked) [Compound 124]	concentration at 1 h	ng/mL	11
CCCOC(=O)c1ccccc1COP1(=O)OC[C@H]2O[C@@H](n3cc(F)c(=O)[nH]c3=O)C[C@@H]2O1 (some centres unmarked) [Compound 126]	concentration at 1 h	ng/mL	2.7

Recorded values, source patent US12110311B2.
